Kindly supply the reported TGI values for the records listed here.
- System: U251 CNS
- Procedure Summary: NCI tumour cell line growth inhibition, 48 h

ClCC[N-]CC[N-]CCCl.ClCC[N-]CC[N-]CCCl.[O-][Cl+3]([O-])([O-])O.[Zn+2] ... > 67.3 µM
Cc1ccc(S(=O)(=O)N/N=C2\CCC3(O)CC2(C)CCC2C3CC2(C)C)cc1 (stereo unspecified) ... > 100 µM
CCOC(=O)c1[nH]c2cc(OC)c(OC)cc2c1CN(C)C ... > 100 µM
CCC(=O)N1C/C(=C/c2ccc(Br)cc2)C(=O)/C(=C/c2ccc(Br)cc2)C1 ... 0.763 µM
CC(C)COC1Sc2ccccc2S1 ... 35.9 µM

Hi team, please reply with TGI for each item in this list.
1. CC(O)(C#N)CC(O)(C(F)(F)Cl)C(F)(F)Cl (stereo unspecified)
2. COc1ccc(N=Nc2ccc3oc(=O)c(C(=O)Nc4ccccc4C)cc3c2)cc1
3. CN(C)c1ccc(/C=N/c2nc3cc4sc(/N=C/c5ccc(N(C)C)cc5)nc4cc3s2)cc1
4. COc1ccc(-c2cn(-c3ccc(OC)c(OC)c3)c(=O)[nH]2)cc1
5. O=C(CSCC(=O)N/N=C\c1ccc(O)c(O)c1O)N/N=C\c1ccc(O)c(O)c1O

["> 10 µM", "> 10 µM", "> 100 µM", "> 100 µM", "19.2 µM"]

Quick batch: TGI for everything below.
1. CC1C=CC(C(N)C(=O)O)O1 (stereo unspecified)
2. NS(=O)(=O)c1ccc(NC(=O)C2C(=O)C(=O)N(c3ccc(S(N)(=O)=O)cc3)C2=O)cc1 (stereo unspecified)
3. NC(CCP(=O)(O)O)C(=O)O (stereo unspecified)
4. CC(NC1=CC(=O)c2cccnc2C1=O)C(O)c1ccccc1 (stereo unspecified)
5. COc1ccc(-c2oc3cc(OC(C)=O)cc(OC(C)=O)c3c(=O)c2OC)cc1
6. NC(=O)c1ccc([N+](=O)[O-])cc1
7. COc1ccc(-c2csc(Cc3nc4c(Br)cc(Br)cc4c(=O)n3-c3ccc(OC)cc3)n2)cc1

["> 100 µM", "> 100 µM", "> 100 µM", "13.2 µM", "30.6 µM", "> 100 µM", "> 100 µM"]

Kindly give each listed record's TGI.
1. Nc1nc2c(-c3ccc([N+](=O)[O-])cc3)nnn2c2ccccc12
2. CCc1cc2c(O)c(c1)Cc1cc(CC)cc(c1O)Cc1cc(CC)cc(c1O)Cc1cc(CC)cc(c1O)Cc1cc(CC)cc(c1O)Cc1cc(CC)cc(c1O)Cc1cc(CC)cc(c1O)C2
3. Cn1cc(C2=C(c3cn(CCCN)c4ccccc34)C(=O)NC2=O)c2ccccc21
4. COc1cc2c(oc(=O)c3cc4cc([Si](C)(C)C)oc4c(OC)c32)c2cccc(O)c12

66.4 µM
> 100 µM
11.5 µM
> 100 µM

====

- Test system: HOP-62 NSCLC
- Procedure Summary: NCI tumour cell line growth inhibition, 48 h
Readout Kind: log10(TGI) (log10 of the value in µM)
Reminder: these figures are log10 of reported TGI, in µM before transformation.

Reference set, count: 2
CCCCSCC(NC(=O)/C=C/c1c(C)[nH]c(=O)[nH]c1=O)C(=O)OC (configuration not stated) ... 2.40
CC(=O)Oc1c2ccsc2c(OC(C)=O)c2ccsc12 ... 0.64

Here are 5 compounds. What values of log10(TGI) were reported for them?
1. Cn1cc(C2=C(c3cn(CCCN)c4ccccc34)C(=O)NC2=O)c2ccccc21
2. O=CC1C(Cl)=Nc2nc3ccccc3n2C1c1ccccc1 (configuration not stated)
3. Nc1cc2ncnn2c(SCC(=O)N/N=C/C(Br)=C\c2ccccc2)n1
4. COc1ccc(-c2cc(-c3ccc(Cl)cc3)nc(NCCCCNc3ccnc4cc(Cl)ccc34)n2)cc1
5. CCOc1ccc(C(C[N+](=O)[O-])Sc2ccccc2N)cc1 (configuration not stated)

1.23
1.65
1.94
0.54
1.51

Return reported log10(TGI) values for all items listed beneath this line.
1. COc1cc2ncnc(Nc3ccc(Oc4ccnc(C)c4)c(C)c3)c2cc1NC(=O)CC1CCSS1 (configuration not stated)
2. Clc1cccc(CNc2c3ccccc3nc3ccccc23)c1
3. CC(=O)c1ccccc1NC(=O)C(=O)C(C(=O)c1ccccc1-c1ccccc1)C1OC(=O)c2ccccc21 (configuration not stated)
4. Nc1ncc(-c2ccc3ncnc(N4CCc5ccc(Cl)cc54)c3c2)cc1C(F)(F)F
5. O=C(c1ccc([N+](=O)[O-])cc1)C(Br)C(Br)c1ccnc2ccccc12 (configuration not stated)

1. 0.46
2. 1.09
3. 1.65
4. 1.12
5. 1.47

====

Exercise: state measured TGI for each of the compounds provided.
- System: TK-10 renal
- Procedure Summary: NCI tumour cell line growth inhibition, 48 h

ClCC[N-]CC[N-]CCCl.ClCC[N-]CC[N-]CCCl.[O-][Cl+3]([O-])([O-])O.[Zn+2] ... > 71.1 µM
COc1cc2c(oc(=O)c3cc4cc([Si](C)(C)C)oc4c(OC)c32)c2cccc(O)c12 ... > 100 µM
CCC/C(Cl)=N/OC(NC(=O)OCC)(C(F)(F)F)C(F)(F)F ... 33.3 µM

Can you give me TGI for all of these, one by one?
1. Cc1ccc(Cl)c(NS(=O)(=O)c2ccc(-c3cnc(C4CC4)o3)cc2)c1
2. COc1ccc(-c2oc3cc(OC(C)=O)cc(OC(C)=O)c3c(=O)c2OC)cc1
3. O=C1c2cccc(O)c2C(=O)c2c(O)cccc21
4. NC(Cc1c[nH]c2ccc([N+](=O)[O-])cc12)C(=O)O (centres undefined)
5. COc1ccc(C(=O)c2cc3c(N)c(C(=O)Nc4cccc(Br)c4C)sc3nc2C)cc1
6. CCOC(=O)CCC(NC(=O)c1ccc(Oc2nc3c(N)cc(C(F)(F)F)cc3nc2-c2ccccc2)cc1)C(=O)OCC (centres undefined)
7. COc1cc2c(c(OC)c1OC)-c1ccc(SC)c(=O)cc1[C@@H](NC(=O)C(F)(F)F)CC2

1. > 89.7 µM
2. 70.8 µM
3. > 100 µM
4. > 100 µM
5. > 100 µM
6. > 100 µM
7. > 100 µM

Fill in TGI for each of the 7 compounds listed.
1. COc1ccc(/C=C/C(=O)c2c(-c3ccccc3)nn(C)c(=O)c2N2CCOCC2)cc1
2. O=C1Nc2ccccc2/C1=C\c1nc(-c2ccccc2F)n2ccccc12
3. COc1cc([N+](=O)[O-])c(S(=O)(=O)O)cc1-n1nc(C(=O)Nc2ccccc2)n[n+]1-c1cc(S(=O)(=O)[O-])c([N+](=O)[O-])cc1OC
4. CCOC(=O)/C(C(=S)NCc1ccccc1)=C(/N)N1CCCC1
5. O=C(Nc1cc(Cl)cc(Cl)c1)c1cccc(NC2=C(Cl)C(=O)N(Cc3ccccc3)C2=O)c1
6. COc1cc([C@@H]2c3cc4c(cc3[C@@H](OC(=O)c3cccc(N)c3)C3COC(=O)[C@@H]32)OCO4)cc(OC)c1O (some centres undefined)
7. CCCCCCCCCCCCCCCC(=O)OCCOCCOCCOCCOCCOC(=O)CCCCCCCCCCCCCCC

> 100 µM
14.2 µM
> 100 µM
> 100 µM
> 100 µM
> 100 µM
> 100 µM

For every item below, please supply its TGI.
1. CCOC(=O)NN(C(=O)OCC)C(=C(C1=CCCCC1)N1CCOCC1)N(NC(=O)OCC)C(=O)OCC
2. CC1=CP(=O)(c2ccccc2)C=C(C)C1=C(Cl)Cl (centres undefined)

1. > 100 µM
2. 43.3 µM

====

- System: PC-3 prostate
- Procedure Summary: NCI tumour cell line growth inhibition, 48 h
Please provide measured TGI for the entries that follow.

O=[N+]([O-])c1cc(N=Nc2c(O)ccc3cc(S(=O)(=O)O)ccc23)c(O)c([N+](=O)[O-])c1 ... > 100 µM
O=C(Nc1ccccc1)OC1OC(COC(=O)c2ccccc2)C(OC(=O)c2ccccc2)C1OS(=O)(=O)c1ccc([N+](=O)[O-])cc1 (centres undefined) ... > 100 µM

Record TGI for all entries; do not skip any.
1. COc1ccc(CNc2nc(NCc3ccc(OC)cc3)nc(NC3CCCC3)n2)cc1
2. CCNC1=C(NC(=O)c2ccccc2)C(=O)c2ccccc2C1=O
3. COc1ccc(-c2oc3cc(OC(C)=O)cc(OC(C)=O)c3c(=O)c2OC)cc1
4. COC(=O)CN1C(=O)C2(C(=O)OC)OC1(c1ccc([N+](=O)[O-])cc1)C1C(=O)N(c3ccccc3)C(=O)C12 (centres undefined)
5. CCOC(=O)C1C(c2ccc(OC)cc2)c2c([nH][nH]c2=O)CC1(C)O (centres undefined)
6. CCOc1ccc(C(C[N+](=O)[O-])Sc2ccccc2N)cc1 (centres undefined)

["> 100 µM", "78.9 µM", "59 µM", "> 100 µM", "> 100 µM", "17.3 µM"]

Supply recorded TGI for CCC/C(Cl)=N/OC(NC(=O)OCC)(C(F)(F)F)C(F)(F)F here.
> 100 µM
